The reported numbers originate from the supplement of paper PMC10567573.

B1: DULLARD (parent)
chain: LVVFTASMEIYGSAVADKLDNSRS

# Variants of: B1
# TEST DETAILS: protein stability index of a GFP-peptide fusion (GPS, HEK-293T) (PSI 1-6); higher = more stable;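 note: lentivirally expressed fusions sorted by FACS into six bins by GFP to DsRed ratio, PSI derived from sequencing read proportions per bin multiplied by bin number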
# ASSAY CONDITIONS: c terminus: a fixed tail appended
Reported protein stability index is given for each of the following variants.
Enter a number only.

Known results for variants:
V2I; 2.18
N21R; 2.68
I10S; 1.05
A6E; 1.54
S13R; 2.84

// lookup protein stability index for "S24I" 1.3

Would you kindly share the measured protein stability index for "M8E" ? 1.83

Tell me the measured protein stability index of "M8T" , please. 1.82

I have this variant here, "S24R" , and I need its recorded protein stability index. 1.88

protein stability index for "A16I" ? 2.93

Requested field: protein stability index. Item: "V15K" 2.26

Requested read-out: protein stability index. Entry: "I10A" 1.05

Look up protein stability index for this variant: "S7I" 4.7

Quick one: protein stability index of "A14R" ? 4.28

// lookup protein stability index for "N21P" 3

So what's the measured protein stability index for this one? "F4Y" 2.93

I'd like to know its protein stability index. The variant in question is "L19H" 1.54

So what's the measured protein stability index for this one? "A14Q" 1.99

Field request: protein stability index | item: "F4N" 2.4

Would you mind telling me what protein stability index value was observed for "V2T" ? 1.72

What value of protein stability index has been recorded for this entry: "V2D" 3.02

# get_value(readout='protein stability index', item= "S22T" ) 1.89
